Measured normalized growth by item
# Test details: chemical genetic growth profiling, strain panel (AID 1159580);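 further: tested at 20 µM; growth read once vehicle control cultures reached saturation at 30 °C; 1 = growth at the plate median or of vehicle wells; lower values mean less growth of the strain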
# Settings: S. cerevisiae deletion strains, growth OD, locus YNR030W, strain Alg12, hits give low values
Out of some 5,500 compounds screened, about 2,000 (36%) were called active. Not shown: some 18% with an inconclusive outcome. This is one part of the list.
Assay endpoint: normalized growth

{"Molecule": "CC(C)CC1NC(=O)NC1=O (stereo not drawn)", "Assay endpoint": "normalized growth", "Measurement": 1.02}
{"Molecule": "O=S(=O)(Oc1cc(Cl)cc(Cl)c1)c1cccc(S(=O)(=O)Oc2cc(Cl)cc(Cl)c2)c1", "Assay endpoint": "normalized growth", "Measurement": 1.01}
{"Molecule": "COc1ccc(CCNc2ccc(C(F)(F)F)cc2N)cc1OC", "Assay endpoint": "normalized growth", "Measurement": 0.974}
{"Molecule": "OC1(C(F)(F)F)CC(c2ccc3ccccc3c2)=NN1 (stereo not drawn)", "Assay endpoint": "normalized growth", "Measurement": 0.108}
{"Molecule": "Cc1ccc(-c2csc(-c3ccc(Oc4ccc(C(F)(F)F)cn4)cc3)n2)c(C)c1", "Assay endpoint": "normalized growth", "Measurement": 1}
{"Molecule": "O=C1NC(=O)/C(=C/c2ccc(OS(=O)(=O)c3ccc(Cl)cc3)cc2)N1", "Assay endpoint": "normalized growth", "Measurement": 1}
{"Molecule": "COC(=O)CSc1ncnc2c(C)csc12", "Assay endpoint": "normalized growth", "Measurement": 0.981}
{"Molecule": "COCCCNC(=S)N/N=C\\c1cccc(OC)c1O", "Assay endpoint": "normalized growth", "Measurement": 0.982}
{"Molecule": "O=[N+]([O-])c1ccc(Oc2cccc3cccnc23)cc1", "Assay endpoint": "normalized growth", "Measurement": 0.994}
{"Molecule": "OC1(C(F)(F)F)CC(c2ccccc2)=NN1 (stereo not drawn)", "Assay endpoint": "normalized growth", "Measurement": 1}
{"Molecule": "Cc1cc(C)c(CSCCNC(=O)Nc2ccc(F)cc2F)c(C)c1", "Assay endpoint": "normalized growth", "Measurement": 1.04}
{"Molecule": "O=C1NN=C2C3CC4CC12CC1(C3)C(=O)NN=C41", "Assay endpoint": "normalized growth", "Measurement": 0.978}
{"Molecule": "S=c1nccc(-c2ccc(Cl)cc2)[nH]1", "Assay endpoint": "normalized growth", "Measurement": 0.694}
{"Molecule": "C/C(=N/NC(=S)Nc1ccc(C(C)C)cc1)c1ccco1", "Assay endpoint": "normalized growth", "Measurement": 0.609}
{"Molecule": "FC(F)(F)c1ccc(Cl)c(NC(=S)NN=C2CCCCCC2)c1", "Assay endpoint": "normalized growth", "Measurement": 0.895}
{"Molecule": "Cc1ccc(/C=C2\\CCc3ccccc3C2=O)o1", "Assay endpoint": "normalized growth", "Measurement": 0.205}
{"Molecule": "COC(=O)CSc1nc2ccc(Cl)cc2s1", "Assay endpoint": "normalized growth", "Measurement": 0.975}
{"Molecule": "Brc1ccc(-c2ccn[nH]2)s1", "Assay endpoint": "normalized growth", "Measurement": 0.939}
